B1: PTPN9 (parent)
chain: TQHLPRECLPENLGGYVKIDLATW

# Variants of: B1
# Method Summary: protein stability index of a GFP-peptide fusion (GPS, HEK-293T) (PSI 1-6); higher = more stable;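 further: lentivirally expressed fusions sorted by FACS into six bins by GFP to DsRed ratio, PSI derived from sequencing read proportions per bin multiplied by bin number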
# Condition Label: c terminus: a fixed tail appended
Outcome Measure: protein stability index
Give the value as a plain number.

get_value(item= G14Q , readout=protein stability index) returns 1.96

get_value(item= L9F , readout=protein stability index) returns 1.94

get_value(item= P5S , readout=protein stability index) returns 1.89

get_value(item= K18T , readout=protein stability index) returns 1.91

get_value(item= G15W , readout=protein stability index) returns 2.88

get_value(item= V17L , readout=protein stability index) returns 1.48

get_value(item= W24P , readout=protein stability index) returns 2.86

get_value(item= E7I , readout=protein stability index) returns 2.52

get_value(item= V17N , readout=protein stability index) returns 2.36

get_value(item= L13N , readout=protein stability index) returns 2.58

get_value(item= E7Y , readout=protein stability index) returns 2.19

get_value(item= E7D , readout=protein stability index) returns 2.2

get_value(item= C8K , readout=protein stability index) returns 1.93

get_value(item= L13I , readout=protein stability index) returns 1.91

get_value(item= L4F , readout=protein stability index) returns 2.06

get_value(item= V17M , readout=protein stability index) returns 2.01

get_value(item= G14I , readout=protein stability index) returns 1.74

get_value(item= E7K , readout=protein stability index) returns 1.52

get_value(item= C8A , readout=protein stability index) returns 2.16

get_value(item= C8V , readout=protein stability index) returns 2.02

get_value(item= T23F , readout=protein stability index) returns 2.17

get_value(item= C8I , readout=protein stability index) returns 1.7
